target: HLA-A*03:01; test: IEDB peptide-MHC binding, purified MHC/competitive/radioactivity; filed as Kd, often an IC50 or EC50 that approximates it; bounds were set here for any values at or beyond the usual limits of such assays; conditions: source organism: Vaccinia virus WR
// NB: equality with 400 nM counts as 0.0; only Kd strictly below is 1.0

- DMMLMIGNY: 0.0
- RPDTRHLRVL: 0.0
- NVQFVDINR: 0.0
- IMEIVSHLR: 0.0
- PIIVAGFSGK: 0.0
- QTPTKLMNK: 1.0
- VLFSIFYKDY: 0.0
- ETVKMGAFMY: 0.0
- DMSHLKVALY: 0.0
- MVASDVCKK: 1.0
- AAISKLGINY: 1.0
- FIFSALDEK: 1.0
- LVCFPSTQR: 0.0
- MVSVSDFRDY: 0.0
- KFISDNKKEY: 0.0
- YLGSANMDWR: 0.0
- ASGQRCHFIK: 0.0
- NAKVGDDVK: 0.0

----------
Below, each of the sequences is paired with its reported pKd value.
target: HLA-A*68:01; experiment: IEDB peptide-MHC binding, purified MHC/competitive/radioactivity; filed as Kd, often an IC50 or EC50 that approximates it; bounds were set here for any values at or beyond the usual limits of such assays; settings: source organism: Vaccinia virus WR
pKd: −log10 of the molar value.
valueKind: pKd

• YSISNDLLY = 5.64
• NVQFVDINR = 9.40
• YLGSANMDWR = 5.97
• PIIVAGFSGK = 5.42
• SLVENNFFTK = 6.92
• KLDNHDILTY = 4.79
• NAKVGDDVK = 6.32
• RVMANNVKKK = 6.27
• ETVKMGAFMY = 7.21
• SINKVYGRY = 5.70
• RIENEMKINR = 6.10
• HTTAFFNTCK = 8.67
• IFSPENKAFK = 6.74
• TIREFPRKDK = 5.14
• QLVFNSISAR = 7.31
• YLRLYIILAR = 7.83
• SACANGWIQY = 5.54
• NTMCTEETK = 7.90
• FIFSALDEK = 7.61
• KIMEIVSHLR = 8.62
• STQQNKLVIR = 6.20
• MVASDVCKK = 7.18
• ILARNEEGR = 7.06
• EIINFTISMR = 8.95
• ATFIDVHIPK = 8.46
• QTPTKLMNK = 6.75
• IMSIGFEAR = 6.66
• AFDAPTLYVK = 6.87
• TLNHVLALKY = 4.88
• LVCFPSTQR = 7.97

----------
biological target: HLA-A*02:03; experiment: IEDB peptide-MHC binding, purified MHC/competitive/radioactivity; filed as Kd, often an IC50 or EC50 that approximates it; bounds were set here for any values at or beyond the usual limits of such assays; conditions: source organism: Vaccinia virus WR
pKd: −log10 of the molar value.
Below, each of the sequences is paired with its reported pKd value.
valueKind: pKd

• DIMLPESDL = ≤ 4.45
• DMDFDLNIFM = ≤ 5.30
• GANGSTAEQL = ≤ 4.34
• CTEETKRNI = ≤ 4.11
• ETAIRAGYSI = ≤ 4.53
• RPDTRHLRVL = ≤ 4.15
• SADNHPKMI = ≤ 4.36
• ATLMKTSCSK = ≤ 4.15
• AINKCVDIFT = ≤ 4.58
• MIGNYFSGVL = 6.12
• SVMNFIPII = 8.20
• FLARKGIDT = 6.50
